Measured values drawn from PubChem BioAssay (Tox21) for this set.

test: qHTS assay to identify small molecule antagonists of the sonic hedgehog signaling (Shh) pathway (AID 1259369); conditions: NIH/3T3 Gli1-Luc reporter, Shh antagonist, luminescence 24 h; series mostly up to 92.4 µM; also: nearly all actives have a fitted effect of over 45% in size
Results filed as inconclusive are left out. Calls of active or inactive are those of the source. Calls follow the shape of the full dose curve.
Labels: YES for active, NO for inactive

molecule="CO[C@@]1(NC(=O)C(C(=O)O)c2ccc(O)cc2)C(=O)N2C(C(=O)O)=C(CSc3nnnn3C)CO[C@@H]21 (stereo partly specified)" assignedcategory=NO
molecule=CC(C)c1ccc2ncccc2c1 assignedcategory=NO
molecule="CCCCCC(C)N (stereo unspecified)" assignedcategory=NO
molecule=CN(C)CCCN(C)CCCN(C)C assignedcategory=NO
molecule=CC(C)(C)C(=O)Oc1ccc(S(=O)(=O)Nc2ccccc2C(=O)NCC(=O)O)cc1 assignedcategory=NO
molecule=NO assignedcategory=NO
molecule=COc1cc2c(cc1OC)-c1cc3ccc(OC)c(OC)c3c[n+]1CC2 assignedcategory=NO
molecule=CC(=O)c1ccc2ccccc2c1 assignedcategory=NO
molecule=CC1=CC(=O)[C@H]2C[C@@H]1C2(C)C assignedcategory=NO
molecule=O=Cc1cccc(Br)c1 assignedcategory=NO
molecule=CCCCOCCOC(=O)CCCCCCCCC(=O)OCCOCCCC assignedcategory=YES
molecule=CNC(=O)Nc1ccc(Cl)c(Cl)c1 assignedcategory=NO
molecule=C[C@@H]1C[C@H]2[C@@H]3C[C@H](F)C4=CC(=O)C(Cl)=C[C@]4(C)[C@@]3(F)[C@@H](O)C[C@]2(C)[C@@]1(O)C(=O)CO assignedcategory=YES
molecule=Clc1cc(Cl)c(Cl)nc1Cl assignedcategory=NO
molecule=NCCCC[C@H](N[C@@H](CCc1ccccc1)C(=O)O)C(=O)N1CCC[C@H]1C(=O)O assignedcategory=NO
molecule="COc1cc(C(=O)OC(COCCC(C)C)CN2CCOCC2)cc(OC)c1OC (stereo unspecified)" assignedcategory=NO
molecule=Cc1cccc(C)c1NC(=O)CC12CCCN1CCC2 assignedcategory=NO
molecule=CCOC(=O)COC(=O)c1ccccc1C(=O)OCC assignedcategory=NO
molecule=CC(=O)NC(=O)c1ccccc1O assignedcategory=NO
molecule=CC1(C)OC[C@@H](COC(=O)CCc2ccc(OC[C@@H](O)CNCCNC(=O)N3CCOCC3)cc2)O1 assignedcategory=NO
molecule="CC12CCC(C(=O)C1=O)C2(C)C (stereo unspecified)" assignedcategory=NO
molecule="CC1CCC(CO)CC1 (stereo unspecified)" assignedcategory=NO
molecule="CC(COc1ccccc1)NN (stereo unspecified)" assignedcategory=NO
molecule="CC1=CCC(O)(C(C)C)CC1 (stereo unspecified)" assignedcategory=NO
molecule=Cc1ccc(C(=O)c2ccc(CC(=O)O)n2C)cc1 assignedcategory=NO
molecule=COc1cc(C)nc(-n2nc(C)cc2OC)n1 assignedcategory=NO

----------
biological target: Nuclear receptor subfamily 1 group I member 2 (Homo sapiens); assay: CYP3A4 induction through human pregnane X receptor (PXR) by small molecules, qHTS assay (AID 1346984); conditions: DPX-2 HepG2 PXR, CYP3A4-luciferin luminescence, 24 h; series mostly up to 46.1 µM; also: nearly all actives have a fitted effect of over 40% in size; as to activation: % is scaled to controls: 0 for no effect and ±100 for the full control effect
Results filed as inconclusive are left out. The source made the active and inactive calls. The call rests on the fitted dose curve; in most records, active means well fitted activation curve with a large enough effect in the repeat runs; inconclusive means weak or mixed curves; inactive means no such curve, though single readings can be large or run the other way.
Possible outcomes: True (active), False (inactive)

molecule=O=C(O)Cc1csc(-c2ccc(Cl)cc2)n1 assignedcategory=False
molecule=c1ccc2sc(SN3CCOCC3)nc2c1 assignedcategory=False
molecule=CC1=C(C/C=C(\C)CCC[C@H](C)CCC[C@H](C)CCCC(C)C)C(=O)c2ccccc2C1=O assignedcategory=True
molecule=CC[N+](C)(CC)CCOC(=O)C1c2ccccc2Oc2ccccc21 assignedcategory=False
molecule="C[N+]1(C)[C@@H]2CC(OC(=O)[C@H](CO)c3ccccc3)C[C@H]1[C@@H]1O[C@@H]12 (some centres undefined)" assignedcategory=False
molecule=CCCCCCCCCCCCCCCCCCO assignedcategory=False
molecule=O=C(O)CNC(=O)c1ccccc1 assignedcategory=False
molecule=CO/N=C(\C(=O)N[C@@H]1C(=O)N2C(C(=O)O)=C(CSc3nc(=O)c(O)nn3C)CS[C@H]12)c1csc(N)n1 assignedcategory=False
molecule=CN(C)C(=O)Oc1ccc[n+](C)c1 assignedcategory=False
molecule=CC(=O)N1C[C@H](O)C[C@H]1C(=O)O assignedcategory=False
molecule=C[C@@H]1CCC[C@H](C)N1 assignedcategory=False
molecule=Cc1ccnc(NS(=O)(=O)c2ccc(N)cc2)n1 assignedcategory=False
molecule=O=[N+]([O-])c1ccc(/C=N\O)o1 assignedcategory=False
molecule=CCCCc1nc(Cl)c(CO)n1Cc1ccc(-c2ccccc2-c2nn[nH]n2)cc1 assignedcategory=False
molecule=Cc1ccc(C(=O)Nc2ccc(S(=O)(=O)O)c3cc(S(=O)(=O)O)cc(S(=O)(=O)O)c23)cc1NC(=O)c1cccc(NC(=O)Nc2cccc(C(=O)Nc3cc(C(=O)Nc4ccc(S(=O)(=O)O)c5cc(S(=O)(=O)O)cc(S(=O)(=O)O)c45)ccc3C)c2)c1 assignedcategory=False
molecule=COc1ccc2cc1Oc1cc3c(cc1OC)CC[N+](C)(C)[C@H]3Cc1ccc(cc1)Oc1c(OC)c(OC)cc3c1[C@@H](C2)[N+](C)(C)CC3 assignedcategory=False
molecule=CC[N+](CC)(CC)CCOc1cccc(OCC[N+](CC)(CC)CC)c1OCC[N+](CC)(CC)CC assignedcategory=False
molecule="CCN[C@@H]1C[C@H](N)[C@@H](OC2OC(CN)=CCC2N)[C@H](O)[C@H]1O[C@H]1OC[C@](C)(O)[C@H](NC)[C@H]1O (some centres undefined)" assignedcategory=False
molecule="CCC1C(=O)OCC1Cc1cncn1C (centres undefined)" assignedcategory=False

----------
assay: A CellTox Green Cytotoxicity Assay to monitor cytotoxicity in HEK293 cells - 8 hour (AID 1224884); conditions: CellTox Green fluorescence; series mostly up to 76.8 µM; also: % is scaled to controls: 0 for no effect and ±100 for the full control effect; nearly all actives have a fitted effect of over 35% in size
Inconclusive results are not listed. Calls of active or inactive are those of the source. Calls follow the shape of the dose curve; as a rule, active = well fitted activation curve with a large enough effect in the repeat runs; inconclusive = weak or mixed curves; inactive = flat fitted curve, though single readings scatter.
quantity: cytotoxicity increase

compound="NCCCC(N)(C(=O)O)C(F)F (stereo unspecified)" quantity="cytotoxicity increase" result=inactive
compound=Cc1cc(C)c(N=Nc2c(O)c(S(=O)(=O)O)cc3cc(S(=O)(=O)O)ccc23)cc1C quantity="cytotoxicity increase" result="0% [at 6.97 µM] (inactive)"
compound="CCCCCCCC1CCCC1=O (stereo unspecified)" quantity="cytotoxicity increase" result=inactive
compound="CCN1C=CN(C)C1C (stereo unspecified)" quantity="cytotoxicity increase" result=inactive
compound=CC(=O)c1cnccn1 quantity="cytotoxicity increase" result=inactive
compound=COc1ccc2cc1Oc1cc3c(cc1OC)CC[N+](C)(C)[C@H]3Cc1ccc(cc1)Oc1c(OC)c(OC)cc3c1[C@@H](C2)[N+](C)(C)CC3 quantity="cytotoxicity increase" result=inactive

----------
target: Cytochrome P450 3A4 (Homo sapiens) (UniProt P08684); experiment: Cytochrome P450 Family 3 Subfamily A Member 4 (CYP3A4) small molecule antagonists: luciferase reporter qHTS assay (AID 1671201); details: P450-Glo CYP3A4 enzyme, luciferin luminescence, 1 h; series mostly up to 115 µM; also: % is scaled to controls: 0 for no effect and ±100 for the full control effect; nearly all actives have a fitted effect of over 50% in size
Sequence (P08684 whole entry, looked up): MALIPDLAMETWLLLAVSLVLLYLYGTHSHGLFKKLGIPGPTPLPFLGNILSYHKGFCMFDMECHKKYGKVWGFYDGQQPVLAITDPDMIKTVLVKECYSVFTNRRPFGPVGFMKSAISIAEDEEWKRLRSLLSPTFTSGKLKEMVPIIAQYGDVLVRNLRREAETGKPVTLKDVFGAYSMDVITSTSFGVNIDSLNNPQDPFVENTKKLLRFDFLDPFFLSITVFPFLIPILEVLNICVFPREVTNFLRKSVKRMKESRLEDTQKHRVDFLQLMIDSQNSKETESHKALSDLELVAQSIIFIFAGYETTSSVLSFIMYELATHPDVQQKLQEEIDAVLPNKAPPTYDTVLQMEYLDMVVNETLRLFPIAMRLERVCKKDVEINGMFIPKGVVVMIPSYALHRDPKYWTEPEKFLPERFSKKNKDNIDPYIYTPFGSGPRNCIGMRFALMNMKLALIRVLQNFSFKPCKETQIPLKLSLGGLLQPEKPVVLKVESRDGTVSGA
Results filed as inconclusive are left out. Activity calls are given as the source filed them. Calls follow the shape of the dose curve; as a rule, active = well fitted inhibition curve with a large enough effect in the repeat runs; inconclusive = weak or mixed curves; inactive = no such curve, though single readings can be large or run the other way.
quantity: outcome

compound=O=C(O)c1cc(C(=O)O)cc(C(=O)O)c1 result=inactive
compound=Cc1coc2ccccc2c1=O result=inactive
compound=CCOc1ccc2nc(S(N)(=O)=O)sc2c1 result=inactive
compound="O=C(O)CC(C(=O)O)S(=O)(=O)O (stereo not drawn)" result=inactive
compound=CC1(C)[C@@H]2CC[C@@]1(C)[C@H](O)C2 result=inactive
compound=c1ccc(CCc2ccccc2)cc1 result=inactive
compound=Nc1ccncc1N result=inactive
compound="COc1ccccc1OCC1CNC(=O)O1 (stereo not drawn)" result=inactive
compound=O=[N+]([O-])c1ccc(/C=N\O)o1 result=inactive
compound=CC(C)(C)C(=O)Oc1ccc(S(=O)(=O)Nc2ccccc2C(=O)NCC(=O)O)cc1 result=inactive
compound=N[C@H](C(=O)O)[C@@H](O)c1ccc(O)c(O)c1 result=inactive
compound=O=C(O)CCSCCC(=O)O result=inactive
compound=CC[N+](CC)(CC)CCOc1cccc(OCC[N+](CC)(CC)CC)c1OCC[N+](CC)(CC)CC result=inactive

----------
biological target: Glucocorticoid receptor (Homo sapiens); assay: qHTS assay to identify small molecule antagonists of the glucocorticoid receptor (GR) signaling pathway (AID 720692); settings: GR-bla HeLa, beta-lactamase FRET ratio, dexamethasone-stimulated, 18 h; series mostly up to 58.5 µM
Inconclusive results are not listed. Calls of active or inactive are those of the source. Calls come from the whole dose curve; as a rule, active = well fitted inhibition curve with a large enough effect in the signal ratio in the repeat runs (not every such curve was filed as active); inconclusive = weak or mixed curves, or effect the other way; inactive = no such curve, though single readings can be large or run the other way; the % refers to the signal ratio.
Possible outcomes: y (active), n (inactive)

compound="C=CC(C)(CCC=C(C)C)OC(=O)CC (stereo not given)" assignedcategory=n
compound=O=C(c1ccccc1O)c1ccccc1O assignedcategory=n
compound=C=CCCC(=O)O assignedcategory=n
compound="CC1=NN(c2cc(S(=O)(=O)O)ccc2Cl)C(=O)C1N=Nc1ccccc1 (stereo not given)" assignedcategory=n
compound=CC(=O)O[C@@]12CO[C@@H]1C[C@H](O)[C@@]1(C)C(=O)[C@H](O)C3=C(C)[C@@H](OC(=O)[C@H](O)[C@@H](NC(=O)OC(C)(C)C)c4ccccc4)C[C@@](O)([C@@H](OC(=O)c4ccccc4)[C@H]21)C3(C)C assignedcategory=y
